The entries below are paired with their reported DF norm AVERAGE OR98a.
Target: Drosophila OR98a (Drosophila melanogaster)
Construct: expressed in transfected cells
Sequence (Q9VAZ3 whole entry, one chain of several): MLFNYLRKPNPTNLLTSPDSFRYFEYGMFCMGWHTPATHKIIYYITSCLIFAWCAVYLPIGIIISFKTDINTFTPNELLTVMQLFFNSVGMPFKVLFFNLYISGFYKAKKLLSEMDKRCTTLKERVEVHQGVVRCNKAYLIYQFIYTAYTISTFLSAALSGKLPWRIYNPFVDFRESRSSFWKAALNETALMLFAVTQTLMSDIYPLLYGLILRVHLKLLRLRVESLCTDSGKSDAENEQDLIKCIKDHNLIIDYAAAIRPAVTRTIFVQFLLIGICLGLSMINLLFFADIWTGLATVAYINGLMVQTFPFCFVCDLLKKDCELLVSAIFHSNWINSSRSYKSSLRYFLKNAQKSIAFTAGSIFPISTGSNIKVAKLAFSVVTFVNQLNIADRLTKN
Test: Calcium ion fluorescence (GCaMP6) assay, OR98a stable HEK293 cell line
Assay type: cell-based
Conditions: ligand concentration 10 (unit not given); threshold 0.05, below shown as 0
measured_attribute: DF norm AVERAGE OR98a

molecule	result_value
CC(=O)c1ccccc1	0
O=Cc1ccccc1	0
CC(=O)OCC(C)C [isobutyl acetate]	0
CCCCCCCCC=O	0
Cc1ccccc1C	0
CCOC(=O)c1ccccc1 [ethyl benzoate]	0
CCCCCCCCCC=O	0
Cc1ccc(C(C)C)cc1	0
CCc1ccccc1	0.1169
C=CC(C)(O)CCC=C(C)C (stereo not drawn)	0
CCOC(=O)CC [ethyl propionate]	0
CC1=CCC2CC1C2(C)C (stereo not drawn)	0
CC1=CC[C@@H](C(C)(C)O)CC1	0
COC(=O)c1ccccc1O [methyl salicylate]	0
CCCOC(C)=O [propyl acetate]	0.07848
C=C1CCC2CC1C2(C)C (stereo not drawn)	0.1655
CCCCCOC(C)=O [pentyl acetate]	0
CCCCCC(=O)OCC [ethyl hexanoate]	0.1164
OCCc1ccccc1	0.05123
CC(C)=CCC/C(C)=C/CC/C(C)=C/CO	0.07127
Cc1cccc(C)c1	0
Cc1ccc(C)cc1	0
C=C1CCC2(C(C)C)CC12 (stereo not drawn)	0.1017
COC(=O)c1ccccc1 [methyl benzoate]	0
CCCCOC(C)=O [butyl acetate]	0
C=CCc1ccc(O)c(OC)c1	0
C=C(C)[C@H]1CC=C(C)CC1	0
CC/C=C/CCO	0
CC(=O)OCCC(C)C [isopentyl acetate]	0
CCCC(=O)OCC [ethyl butyrate]	0

----------
Biological target: Drosophila OR49b (Drosophila melanogaster, UniProt Q9V6H2)
Construct: expressed in transfected cells
Sequence (Q9V6H2 1-375): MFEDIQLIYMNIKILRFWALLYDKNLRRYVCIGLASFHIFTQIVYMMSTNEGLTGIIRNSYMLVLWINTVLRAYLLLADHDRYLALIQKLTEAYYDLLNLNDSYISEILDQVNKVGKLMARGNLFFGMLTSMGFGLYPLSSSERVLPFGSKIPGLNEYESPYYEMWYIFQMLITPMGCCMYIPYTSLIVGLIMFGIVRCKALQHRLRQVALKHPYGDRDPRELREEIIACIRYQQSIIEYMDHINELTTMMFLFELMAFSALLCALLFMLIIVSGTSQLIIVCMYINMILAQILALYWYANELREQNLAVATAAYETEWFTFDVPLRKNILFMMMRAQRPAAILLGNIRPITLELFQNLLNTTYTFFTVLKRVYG
Sequence (Q9VNB5 1-486 partner): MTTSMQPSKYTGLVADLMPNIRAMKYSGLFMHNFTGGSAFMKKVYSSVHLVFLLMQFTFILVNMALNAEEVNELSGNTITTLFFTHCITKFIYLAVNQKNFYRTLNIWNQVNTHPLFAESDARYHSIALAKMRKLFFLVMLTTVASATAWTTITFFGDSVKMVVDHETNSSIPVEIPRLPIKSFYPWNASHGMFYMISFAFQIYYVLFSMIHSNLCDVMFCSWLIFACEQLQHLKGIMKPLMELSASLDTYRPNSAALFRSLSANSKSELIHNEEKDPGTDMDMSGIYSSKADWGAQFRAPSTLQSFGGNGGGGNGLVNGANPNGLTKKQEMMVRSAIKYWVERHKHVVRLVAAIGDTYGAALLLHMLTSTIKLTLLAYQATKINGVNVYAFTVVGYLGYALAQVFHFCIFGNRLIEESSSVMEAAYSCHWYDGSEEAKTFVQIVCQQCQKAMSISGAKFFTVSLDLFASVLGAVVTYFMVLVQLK
Experiment: cell-based
Details: ligand concentration 100 (unit not given); threshold 0.05, below shown as 0
The entries below are paired with their reported DF norm AVERAGE OR49b.
measured_attribute: DF norm AVERAGE OR49b

compound	measurement_target	measured_attribute	result_value
CC1=CCC2CC1C2(C)C (centres unmarked)	Drosophila OR49b (Drosophila melanogaster, UniProt Q9V6H2)	DF norm AVERAGE OR49b	0
CCCCCCCCC=O	Drosophila OR49b (Drosophila melanogaster, UniProt Q9V6H2)	DF norm AVERAGE OR49b	0
CCCC(=O)OCC [ethyl butyrate]	Drosophila OR49b (Drosophila melanogaster, UniProt Q9V6H2)	DF norm AVERAGE OR49b	0
CCOC(=O)c1ccccc1 [ethyl benzoate]	Drosophila OR49b (Drosophila melanogaster, UniProt Q9V6H2)	DF norm AVERAGE OR49b	0
CCCCCC(=O)OCC [ethyl hexanoate]	Drosophila OR49b (Drosophila melanogaster, UniProt Q9V6H2)	DF norm AVERAGE OR49b	0
CC(=O)c1ccccc1	Drosophila OR49b (Drosophila melanogaster, UniProt Q9V6H2)	DF norm AVERAGE OR49b	0.1277
CC(C)=CCC/C(C)=C/CC/C(C)=C/CO	Drosophila OR49b (Drosophila melanogaster, UniProt Q9V6H2)	DF norm AVERAGE OR49b	0
CCCCCCCCCC=O	Drosophila OR49b (Drosophila melanogaster, UniProt Q9V6H2)	DF norm AVERAGE OR49b	0.08966
OCCc1ccccc1	Drosophila OR49b (Drosophila melanogaster, UniProt Q9V6H2)	DF norm AVERAGE OR49b	0.09318
CCOC(=O)CC [ethyl propionate]	Drosophila OR49b (Drosophila melanogaster, UniProt Q9V6H2)	DF norm AVERAGE OR49b	0
Cc1ccccc1C	Drosophila OR49b (Drosophila melanogaster, UniProt Q9V6H2)	DF norm AVERAGE OR49b	0.6438
Cc1cccc(C)c1	Drosophila OR49b (Drosophila melanogaster, UniProt Q9V6H2)	DF norm AVERAGE OR49b	0.2713
Cc1ccc(C(C)C)cc1	Drosophila OR49b (Drosophila melanogaster, UniProt Q9V6H2)	DF norm AVERAGE OR49b	0
Cc1ccc(C)cc1	Drosophila OR49b (Drosophila melanogaster, UniProt Q9V6H2)	DF norm AVERAGE OR49b	0.379
